- system_name: Pim-1 kinase (Homo sapiens, UniProt P11309)
- Sequence (P11309 whole entry): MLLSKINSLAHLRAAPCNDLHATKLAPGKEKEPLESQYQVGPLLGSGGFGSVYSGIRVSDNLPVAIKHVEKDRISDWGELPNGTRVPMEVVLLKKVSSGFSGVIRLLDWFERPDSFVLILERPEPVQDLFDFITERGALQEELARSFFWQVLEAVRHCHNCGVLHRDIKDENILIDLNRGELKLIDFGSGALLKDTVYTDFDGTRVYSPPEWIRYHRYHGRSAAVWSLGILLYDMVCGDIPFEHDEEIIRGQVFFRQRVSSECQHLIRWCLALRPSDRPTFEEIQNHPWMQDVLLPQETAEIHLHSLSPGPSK
- procedure_summary: Pim-1 kinase inhibition assay (Promega Kinase-Glo)
- Assay type: biochemical
- reported_conditions: Table IV; Kinase-Glo, 10uM ATP; read-out: IC50 on Pim1
- From the text: One illustrative manner in which Pim-1 kinase activity can be determined is by quantifying the amount of ATP remaining in solution after an in vitro Pim-1 kinase reaction. The Kinase-Glo Assay Kit (Promega, Inc., Madison, WI) allows this. […] Thus, the luminescent signal read by the Luminoskan Ascent Instrument (Thermo Electron Corp., Milford, MA) correlates with the amount of ATP present after the kinase reaction and inversely correlates with the amount of kinase acitivity. […]
pIC50: −log10 of the molar value.
value_kind: pIC50

GET /values?readout=pIC50&item= C[C@]1(O)CC[C@H](Nc2ccn3ncc(-c4cccc(OC(F)(F)F)c4)c3n2)CC1
6.71

Same for O=S1(=O)CCC(CNc2ccn3ncc(-c4cccc(C(F)(F)F)c4)c3n2)CC1
6.95

Repeat for the following compound: CO[C@H]1CC[C@H](Nc2ccn3ncc(-c4cccc(Cl)c4)c3n2)CC1
7.17

Also CO[C@H]1CC[C@H](Nc2ccn3ncc(-c4cccc(C(F)(F)F)c4)c3n2)CC1 , if possible.
7.18

a: FC(F)(F)c1cccc(-c2cnn3ccc(NC4CCOCC4)nc23)c1
b: CC(C)(O)C(=O)N1CCC(CNc2ccc3ncc(-c4cccc(OC(F)(F)F)c4)n3n2)CC1
c: O=S1(=O)CCC(Nc2ccc3ncc(-c4cccc(OC(F)(F)F)c4)n3n2)CC1
// sort entries: pIC50, high to low Your reply should list the labels following the order given in the request.
b, a, c
